Provenance of the data: the supplement of paper PMC3545927

test_target: furin, P09958;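 also: purified furin at 1:10 enzyme:substrate in 50 mM HEPES pH 7.5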
Sequence (P09958 whole entry): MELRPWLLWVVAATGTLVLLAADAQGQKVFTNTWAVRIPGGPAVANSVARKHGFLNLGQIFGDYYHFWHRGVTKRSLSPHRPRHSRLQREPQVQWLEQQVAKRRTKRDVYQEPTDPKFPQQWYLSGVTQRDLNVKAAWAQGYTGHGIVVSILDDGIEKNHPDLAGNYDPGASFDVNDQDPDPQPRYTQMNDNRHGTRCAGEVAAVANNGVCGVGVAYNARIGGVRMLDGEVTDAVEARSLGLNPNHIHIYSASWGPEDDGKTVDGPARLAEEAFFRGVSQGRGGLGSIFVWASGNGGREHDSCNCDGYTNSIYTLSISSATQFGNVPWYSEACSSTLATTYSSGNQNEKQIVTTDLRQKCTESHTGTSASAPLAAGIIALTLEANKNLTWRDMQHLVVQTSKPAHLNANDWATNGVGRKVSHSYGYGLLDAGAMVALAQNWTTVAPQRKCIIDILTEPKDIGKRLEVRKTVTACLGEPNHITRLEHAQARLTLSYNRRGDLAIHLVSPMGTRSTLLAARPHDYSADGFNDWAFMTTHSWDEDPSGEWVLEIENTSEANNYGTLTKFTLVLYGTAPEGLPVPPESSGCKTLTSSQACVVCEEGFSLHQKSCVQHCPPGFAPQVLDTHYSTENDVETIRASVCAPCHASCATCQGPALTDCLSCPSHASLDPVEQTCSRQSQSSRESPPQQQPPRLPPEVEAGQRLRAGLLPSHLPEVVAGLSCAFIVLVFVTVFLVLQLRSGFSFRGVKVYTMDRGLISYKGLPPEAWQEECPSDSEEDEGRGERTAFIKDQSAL
assay_notes: furin cleavage Z-score vs untreated control; higher = more cleavage, active = 3.5 or more, inactive = 1 or less, 8 variable residues between constant flanks
particulars: 15 min
The list shows a part of the results. No count for the full screen is at hand.
Outcome codes: active, inactive

{"columns": ["residue_string", "category"],
 "data": [
  ["CASGARRRRCAGNASASA [FS-498]", "inactive"],
  ["CAEPPCHRPSAGNASASA [HC2339]", "inactive"],
  ["CAEPGREKKSAGNASASA [FS-414]", "inactive"],
  ["CARLHQWISSAGNASASA [HC1140]", "inactive"],
  ["CALKARRKKSAGNASASA [FS-176]", "active"],
  ["CAEPKRIKKSAGNASASA [FS-157]", "active"]
]}
